Target System: UniProtKB P55055
Sequence (whole entry): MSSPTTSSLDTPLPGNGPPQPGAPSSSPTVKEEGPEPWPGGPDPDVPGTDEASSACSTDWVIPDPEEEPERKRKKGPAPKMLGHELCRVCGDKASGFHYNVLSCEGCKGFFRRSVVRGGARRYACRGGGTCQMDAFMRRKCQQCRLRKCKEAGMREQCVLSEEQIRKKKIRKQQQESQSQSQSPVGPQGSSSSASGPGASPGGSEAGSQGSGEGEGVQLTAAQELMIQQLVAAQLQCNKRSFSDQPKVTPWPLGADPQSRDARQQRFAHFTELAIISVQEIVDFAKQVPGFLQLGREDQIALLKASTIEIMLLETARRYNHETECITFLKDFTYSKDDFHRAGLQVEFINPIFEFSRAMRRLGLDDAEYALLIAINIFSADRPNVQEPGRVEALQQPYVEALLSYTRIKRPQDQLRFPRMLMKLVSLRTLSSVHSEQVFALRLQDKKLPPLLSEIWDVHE
Test Protocol: Agonist activity at LXRbeta by FRET assay relative to GW-3965A
Type: functional
Parameters: concentration or dose not given beside the values
Result Type: Activity
The reply should read as a number followed by its unit.

**Query** Data request, read-out Activity, for FC(F)(F)c1cccc(CN(CCCOc2cccc3[nH]ccc23)CC(c2ccccc2)c2ccccc2)c1Cl
**Result** 104%

**Query** Data request, read-out Activity, for Cc1cc(OCCCN(Cc2cccc(C(F)(F)F)c2Cl)CC(c2ccccc2)c2ccccc2)n2ncnc2n1
**Result** 33%

**Query** Data request, read-out Activity, for Cn1ccc2c(OCCCN(Cc3cccc(C(F)(F)F)c3Cl)CC(c3ccccc3)c3ccccc3)cccc21
**Result** 86%

**Query** Data request, read-out Activity, for O=C(O)Cn1ccc2c(OCCCN(Cc3cccc(C(F)(F)F)c3Cl)CC(c3ccccc3)c3ccccc3)cccc21
**Result** 105%

**Query** Data request, read-out Activity, for COC(=O)Cc1c[nH]c2ccc(OCCCN(Cc3cccc(C(F)(F)F)c3Cl)CC(c3ccccc3)c3ccccc3)cc12
**Result** 36%

**Query** Data request, read-out Activity, for Cc1cc(C)c2c(OCCCN(Cc3cccc(C(F)(F)F)c3Cl)CC(c3ccccc3)c3ccccc3)n[nH]c2n1
**Result** 25%

**Query** Data request, read-out Activity, for COC(=O)c1cc(OCCCN(Cc2cccc(C(F)(F)F)c2Cl)CC(c2ccccc2)c2ccccc2)no1
**Result** 68%

**Query** Data request, read-out Activity, for CS(=O)(=O)n1ccc2c(OCCCN(Cc3cccc(C(F)(F)F)c3Cl)CC(c3ccccc3)c3ccccc3)cccc21
**Result** 72%

**Query** Data request, read-out Activity, for Cc1cc(OCCCN(Cc2cccc(C(F)(F)F)c2Cl)CC(c2ccccc2)c2ccccc2)n[nH]1
**Result** 30%

**Query** Data request, read-out Activity, for FC(F)(F)c1cccc(CN(CCCOc2ccc3[nH]ccc3c2)CC(c2ccccc2)c2ccccc2)c1Cl
**Result** 78%

**Query** Data request, read-out Activity, for FC(F)(F)c1cccc(CN(CCCOc2n[nH]c3ccccc23)CC(c2ccccc2)c2ccccc2)c1Cl
**Result** 44%
